Read-out record for Progesterone receptor (Homo sapiens, UniProt P06401): pIC50
Field pIC50 (float): negative decimal logarithm of the concentration in molar.

Known pIC50 results, listed for orientation:
Compound string: COc1cc(NS(=O)(=O)C(F)(F)F)cc(OC)c1Oc1ccc(C#N)c(Cl)c1
pIC50: 6.76

Compound string: N#Cc1ccc(O[C@H]2CC[C@H](NS(=O)(=O)C(F)(F)F)CC2)cc1Cl
pIC50: 7.37

Compound string: CS(=O)(=O)N[C@H]1CC[C@H](Oc2ccc(C#N)c(Cl)c2)CC1
pIC50: 6.97

Okay, now this compound:
Field request: pIC50 | item: COc1cc(NS(C)(=O)=O)cc(OC)c1Oc1ccc(C#N)c(Cl)c1
7.59

---

# Test description: Dissociation constant, pKa of the compound
# Assay type: physicochemical
Measured parameter: pKa
Number only, no unit.

Compound string: COc1cc(NS(=O)(=O)C(F)(F)F)cc(OC)c1Oc1ccc(C#N)c(Cl)c1
pKa: 4.5

Reported pKa for COc1cc(NS(C)(=O)=O)cc(OC)c1Oc1ccc(C#N)c(Cl)c1 : what is it?
8.5

---

# System under test: CYP2C9 (Homo sapiens, UniProt P11712)
# Sequence (P11712 whole entry): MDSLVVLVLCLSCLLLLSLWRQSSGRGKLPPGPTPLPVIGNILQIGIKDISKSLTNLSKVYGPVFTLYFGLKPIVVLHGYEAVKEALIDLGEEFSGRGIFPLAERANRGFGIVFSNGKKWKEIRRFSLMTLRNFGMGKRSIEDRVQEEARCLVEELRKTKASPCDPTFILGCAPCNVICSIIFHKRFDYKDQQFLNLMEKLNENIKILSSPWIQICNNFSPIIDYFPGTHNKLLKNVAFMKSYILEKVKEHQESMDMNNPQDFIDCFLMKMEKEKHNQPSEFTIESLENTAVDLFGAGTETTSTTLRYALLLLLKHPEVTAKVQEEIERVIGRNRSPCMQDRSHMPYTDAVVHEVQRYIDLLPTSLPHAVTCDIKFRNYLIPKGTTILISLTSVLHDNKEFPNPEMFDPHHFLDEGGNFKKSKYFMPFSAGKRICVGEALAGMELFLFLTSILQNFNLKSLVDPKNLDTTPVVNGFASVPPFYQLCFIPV
# Test description: Inhibition of CYP2C9 (unknown origin) at 3 uM
# Format: ADME
# inhibition at 3 µM per entry
Express the result in % but write the number alone.

Example results:
Compound string: COc1cc(NS(C)(=O)=O)cc(OC)c1Oc1ccc(C#N)c(Cl)c1
Unit abbrev: %
Reading: 9
--
Compound string: N#Cc1ccc(O[C@H]2CC[C@H](NS(=O)(=O)C(F)(F)F)CC2)cc1Cl
Unit abbrev: %
Reading: 77
--
Compound string: COc1cc(NS(=O)(=O)C(F)(F)F)cc(OC)c1Oc1ccc(C#N)c(Cl)c1
Unit abbrev: %
Reading: 95

Okay, now this compound:
Entry CS(=O)(=O)N[C@H]1CC[C@H](Oc2ccc(C#N)c(Cl)c2)CC1 has what inhibition at 3 µM?
0
